Biological target: PMN 5-lipoxygenase (Rattus norvegicus, UniProt P12527)
Assay: Inhibition of PMN 5-lipoxygenase in the rat (LTB4 by RIA, A23187-stimulated PMN)
Format: cell-based, rat (male Sprague-Dawley)
Conditions: dose 0.3 mg/ml
Quantity Name: inhibition at 300 µg/mL (%)

COc1ccc(-c2sc3cnccc3c2O)cc1 = 100
CC(=O)Oc1c(-c2ccc(C(F)(F)F)cc2)sc2ncccc12 = 100
CC(=O)Oc1c(-c2ccccc2)sc2nc(C(C)(C)C)ccc12 = 70
CC(=O)Oc1c(-c2ccccc2)sc2nc(Cl)ccc12 = 82

====

Target: PMN 5-lipoxygenase (Rattus norvegicus)
Assay: Inhibition of PMN 5-lipoxygenase in the rat (LTB4 by RIA, A23187-stimulated PMN)
Type: cell-based, rat (male Sprague-Dawley)
Conditions: dose 0.3 mg/ml
Quantity Name: inhibition at 300 µg/mL (%)

COc1ccccc1-c1sc2ncccc2c1OC(C)=O [N=7, R=(CO)CH3, X1=H, X2=o-OCH3] = 100
COc1cccc(-c2sc3ncccc3c2O)c1 [N=7, R=H, X1=H, X2=m-OCH3] = 100
CC(C)(C)c1ccc2c(O)c(-c3ccccc3)sc2n1 [N=7, R=H, X1=t-Bu, X2=H] = 98
Oc1c(-c2ccc(F)cc2)sc2ncccc12 [N=7, R=H, X1=H, X2=p-F] = 100
CC(=O)Oc1c(-c2ccccc2)sc2ccncc12 [N=5, R=(CO)CH3, X1=H, X2=H] = 100

(P) COc1ccc(-c2sc3cccnc3c2OC(C)=O)cc1 [N=4, R=(CO)CH3, X1=H, X2=p-OCH3]
(Q) COc1ccc(-c2sc3c[n+]([O-])ccc3c2OC(C)=O)cc1 [drawing 25, N=6, R=(CO)CH3, X1=H]
Input line: Please state the entry with greater inhibition at 300 µg/mL among P and Q . # respond with the chosen item's label
Output line: P
(P: 73%, Q: 49%)

====

Target: PMN 5-lipoxygenase (Rattus norvegicus, UniProt P12527)
Assay: Inhibition of PMN 5-lipoxygenase in the rat (LTB4 by RIA, A23187-stimulated PMN)
Format: cell-based, rat (male Sprague-Dawley)
Conditions: dose 0.1 mg/ml
Quantity Name: inhibition at 100 µg/mL (%)

Solved entries:
CC(C)(C)c1ccc2c(O)c(-c3ccccc3)sc2n1 = 53
COc1cccc(-c2sc3ncccc3c2OC(C)=O)c1 = 97

(1) COc1ccc(-c2sc3c[n+]([O-])ccc3c2OC(C)=O)cc1 [drawing 25, N=6, R=(CO)CH3, X1=H]
(2) COc1ccc(-c2sc3cccnc3c2OC(C)=O)cc1
(3) CC(=O)Oc1c(-c2ccc(C(F)(F)F)cc2)sc2ncccc12
(4) CC(=O)Oc1c(-c2ccc(F)cc2)sc2ncccc12
Input line: List from greatest to least inhibition at 100 µg/mL. As an answer, provide the labels arranged in the order called for.
Output line: 4, 3, 1, 2
(4: 100%, 3: 61%, 1: 33%, 2: 21%)

====

Target: PMN 5-lipoxygenase (Rattus norvegicus, UniProt P12527)
Assay: Inhibition of PMN 5-lipoxygenase in the rat (LTB4 by RIA, A23187-stimulated PMN)
Type: cell-based, rat (male Sprague-Dawley)
Conditions: dose 1 mg/ml
Quantity Name: inhibition at 1000 µg/mL (%)

COc1ccc(-c2sc3c[n+]([O-])ccc3c2OC(C)=O)cc1 [drawing 25, N=6, R=(CO)CH3, X1=H] = 90
CC(C)(C)c1ccc2c(O)c(-c3ccccc3)sc2n1 [N=7, R=H, X1=t-Bu, X2=H] = 98
Oc1c(-c2cccnc2)sc2ncccc12 [drawing 24, N=7, R=H, X1=H, X2=H] = 98
CC(=O)Oc1c(-c2ccccc2)sc2nc(Cl)ccc12 [N=7, R=(CO)CH3, X1=6-Cl, X2=H] = 100
CC(=O)Oc1c(-c2ccc(C(F)(F)F)cc2)sc2ncccc12 [N=7, R=(CO)CH3, X1=H, X2=p-CF3] = 100
CC(=O)Oc1c(-c2ccccc2)sc2nccc(Cl)c12 [N=7, R=(CO)CH3, X1=4-Cl, X2=H] = 100
CC(=O)Oc1c(-c2ccccc2)sc2nc(C(C)(C)C)ccc12 [N=7, R=(CO)CH3, X1=t-Bu, X2=H] = 95
Cc1cc2sc(-c3ccccc3)c(O)c2c(C)n1 [N=5, R=H, X1=4-CH3,6-CH3, X2=H] = 99
COc1ccc(-c2sc3cccnc3c2OC(C)=O)cc1 [N=4, R=(CO)CH3, X1=H, X2=p-OCH3] = 100

====

Target: PMN 5-lipoxygenase (Rattus norvegicus, UniProt P12527)
Sequence (P12527 1-673): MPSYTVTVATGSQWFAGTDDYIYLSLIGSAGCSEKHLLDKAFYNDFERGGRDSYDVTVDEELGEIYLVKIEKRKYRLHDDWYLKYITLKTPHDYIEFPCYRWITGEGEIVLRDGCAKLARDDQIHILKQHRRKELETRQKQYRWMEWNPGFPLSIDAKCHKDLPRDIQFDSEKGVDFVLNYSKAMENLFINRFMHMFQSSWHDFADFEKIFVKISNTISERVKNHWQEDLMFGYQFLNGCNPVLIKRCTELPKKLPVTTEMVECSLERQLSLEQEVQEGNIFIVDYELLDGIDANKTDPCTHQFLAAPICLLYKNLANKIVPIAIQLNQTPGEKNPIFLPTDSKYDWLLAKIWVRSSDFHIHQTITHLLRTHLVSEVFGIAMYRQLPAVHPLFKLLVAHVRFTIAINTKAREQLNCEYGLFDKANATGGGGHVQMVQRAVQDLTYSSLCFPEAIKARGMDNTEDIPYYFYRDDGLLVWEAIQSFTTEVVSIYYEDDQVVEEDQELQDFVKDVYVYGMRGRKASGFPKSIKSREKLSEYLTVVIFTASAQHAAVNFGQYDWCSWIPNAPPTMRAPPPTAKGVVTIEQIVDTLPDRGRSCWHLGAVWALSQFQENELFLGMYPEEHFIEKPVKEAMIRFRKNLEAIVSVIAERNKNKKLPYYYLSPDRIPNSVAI
Assay: Inhibition of PMN 5-lipoxygenase in the rat (LTB4 by RIA, A23187-stimulated PMN)
Type: cell-based, rat (male Sprague-Dawley)
Conditions: dose 0.037 mg/ml
Quantity Name: inhibition at 37 µg/mL (%)

CC(=O)Oc1c(-c2ccccc2)sc2ccncc12 [N=5, R=(CO)CH3, X1=H, X2=H] = 58
Oc1c(-c2ccc(F)cc2)sc2ncccc12 [N=7, R=H, X1=H, X2=p-F] = 88
COc1ccc(-c2sc3ncccc3c2O)cc1 [N=7, R=H, X1=H, X2=p-OCH3] = 24
COc1ccc(-c2sc3ccncc3c2OC(C)=O)cc1 [N=5, R=(CO)CH3, X1=H, X2=p-OCH3] = 22
COc1cccc(-c2sc3ncccc3c2OC(C)=O)c1 [N=7, R=(CO)CH3, X1=H, X2=m-OCH3] = 52

(P) CC(=O)Oc1c(-c2ccc(F)cc2)sc2ncccc12 [N=7, R=(CO)CH3, X1=H, X2=p-F]
(Q) CC(=O)Oc1c(-c2ccccc2)sc2nccc(Cl)c12 [N=7, R=(CO)CH3, X1=4-Cl, X2=H]
(R) CC(=O)Oc1c(-c2ccccc2)sc2ncccc12 [N=7, R=(CO)CH3, X1=H, X2=H]
Input line: Put the compounds in ascending order of inhibition at 37 µg/mL. As an answer, provide the labels arranged in the order called for.
Output line: Q, P, R
(Q: 22%, P: 49%, R: 95%)

(a) CC(=O)Oc1c(-c2ccc(C#N)cc2)sc2ncccc12 [N=7, R=(CO)CH3, X1=H, X2=p-CN]
(b) COc1ccc(-c2sc3ncccc3c2OC(C)=O)cc1 [N=7, R=(CO)CH3, X1=H, X2=p-OCH3]
Input line: Pick one: a or b . Which one has the lower reported inhibition at 37 µg/mL? # respond with the chosen item's label
Output line: a
(a: 39%, b: 59%)

====

Tested on: Brewer's yeast-induced hyperalgesia (pain response)
Assay: Brewer's Yeast Hyperalgesia Assay in the rat
Assay type: in vivo, rat (female Sprague-Dawley)
Settings: 3 mg/kg p.o.
Quantity Name: % Inhibition (yeast hyperalgesia) (%)
All answers are understood in %, so give the number only.

Solved entries:
CC(=O)Oc1c(-c2ccccc2)sc2ncccc12 [R=(CO)CH3, X1=H, X2=H] = 60
CC(=O)Oc1c(-c2ccccc2)sc2nc(Cl)ccc12 [R=(CO)CH3, X1=6-Cl, X2=H] = 40
COCC(=O)Oc1c(-c2ccccc2)sc2ncccc12 [R=(CO)CH2 OCH3, X1=H, X2=H] = 50
COc1ccc(-c2sc3ncccc3c2O)cc1 [R=H, X1=H, X2=p-OCH3] = 60
COc1ccc(-c2sc3ncccc3c2OC(C)=O)cc1 [R=(CO)CH3, X1=H, X2=p-OCH3] = 10
CC(=O)Oc1c(-c2ccc(F)cc2)sc2ncccc12 [R=(CO)CH3, X1=H, X2=p-F] = 70

Proceeding to the next molecule to report its % Inhibition (yeast hyperalgesia).
The molecule identified as COc1ccc2c(OC(C)=O)c(-c3ccccc3)sc2n1 [R=(CO)CH3, X1=6-OCH3, X2=H] registered its % Inhibition (yeast hyperalgesia) at 60

The measured values listed here are drawn from patent US4904672A.
